# System: 883617-216-R-J1-PDC complex spheroids, growth, % test/control;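 also: exposure lasted 7 days after dosing on day 3 of spheroid growth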
# procedure.summary: Anticancer human tumor 883617-216-R-J1-PDC patient-derived bladder carcinoma cell line growth inhibition [AhR]
# details: second compound 1 µM; first compound 3.16 µM; stronger effect = lower value
endpoint.label: viability, T/C (%)
Express it in %; write the number only.

Examples with answers:
INSERT INTO results (compound, value_units, assay_result) VALUES
  ('O=C(c1cc(Cc2n[nH]c(=O)c3ccccc23)ccc1F)N1CCN(C(=O)C2CC2)CC1 + CC(CO)NC(=O)c1cc(-c2ccc(Cl)cc2)nn(-c2cnn(C)c2)c1=O', '%', 137),
  ('CC1COCCN1c1cc(C2(S(C)(=N)=O)CC2)nc(-c2ccnc3[nH]ccc23)n1 (configuration not stated) + Cc1ccccc1N=Nc1ccc(NC(=O)c2ccnn2C)c(C)c1', '%', 77.1);

Shift focus to the following entry.
Documented viability, T/C of NS(=O)(=O)OCC1CC(n2ccc3c(NC4CCc5ccccc54)ncnc32)CC1O (configuration not stated) + Cc1cncc(-c2nc(NCCc3c[nH]c4ccccc34)c3ncn(C(C)C)c3n2)c1 : 48
